- Test system: K562 CRISPRi cells
- measurement_protocol: Constant region variant library pooled growth screen, K562
- Assay type: cell-based, human
- condition_label: sgRNA constant region variants; activity relative to the original, un-modified constant region cr995
measurement_type: Mean relative activity
Answer using only a numeral; do not append any unit.

Below are worked cases with known answers.
Asked: Quick one: Mean relative activity of cr422 (nucleic acid, listed as DNA, chemistry not fully specified) guide: GTTTAAGAGCTAAGCTGGAAACAGCATAGCAAGTTTAAATAAGGCTAGTCCGTTATCAACTTGAAAAAGTGGTACCGAGTCGTTCCT ?
Given back: 0.0493

Asked: Quick one: Mean relative activity of cr288 (nucleic acid, listed as DNA, chemistry not fully specified) guide: GTTTAAGAGCTAAGCTGGAAACAGCATAGCAACTTTAAATAAGGCTAGTCCGTTATCAACTGGAAACAGTGGCACCGAGTCGGTGCT ?
Given back: 0.1016

Asked: Quick one: Mean relative activity of cr183 (nucleic acid, listed as DNA, chemistry not fully specified) guide: GTTTAAGAGCTAAGCTGGAAACAGCATAGCAAGTTTAAATAAGGTTAATCCGTTATCAACTTGAGAAAGTGGCACCGAGTCGGTGCT ?
Given back: 1.047

Then there is this molecule:
Asked: Quick one: Mean relative activity of cr013 (nucleic acid, listed as DNA, chemistry not fully specified) guide: GTTTGAGAGCTAAGCTGGAAACAGCATAGCAAGTTTAAATAAGGCTAGTCCGTTATCAACTTGAAAAAGTGGCACCGAGTCGGTGCT ?
Given back: 0.8907

Data origin: patent US20220259593A1
